- assayed-target: human alpha-2A receptor (Homo sapiens, UniProt P08913)
- Construct: expressed in transfected cells; host or cells: C6 cells (rat glioma, by own knowledge) continuously expressing the human receptor; membranes
- Sequence (P08913 whole entry): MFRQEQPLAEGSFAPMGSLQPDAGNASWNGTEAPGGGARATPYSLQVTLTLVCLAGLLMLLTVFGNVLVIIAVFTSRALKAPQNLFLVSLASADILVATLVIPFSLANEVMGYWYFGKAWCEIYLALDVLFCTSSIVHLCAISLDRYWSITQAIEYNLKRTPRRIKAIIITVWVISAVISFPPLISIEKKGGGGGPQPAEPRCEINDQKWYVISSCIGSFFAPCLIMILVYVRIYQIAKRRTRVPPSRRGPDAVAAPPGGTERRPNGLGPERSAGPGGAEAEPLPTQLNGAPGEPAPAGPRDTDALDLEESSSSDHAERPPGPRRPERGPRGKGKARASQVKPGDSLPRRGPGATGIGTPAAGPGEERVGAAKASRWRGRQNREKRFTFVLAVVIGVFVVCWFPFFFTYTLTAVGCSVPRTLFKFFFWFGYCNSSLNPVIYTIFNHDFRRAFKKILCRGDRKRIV
- assay-text: Bonds with alpha-2 adrenergic receptors ([3H]RX 821002 binding, C6 cell membranes)
- measurement-setup: 2 nM [3H]RX 821002, C6 cell membranes expressing human alpha-2A receptor, 30 min at 25° C.; read-out: Affinity (pKi) Alpha-2A (converted)
measured-parameter: Ki (nM)
Report as a plain number; the unit nM is understood.

Sample records with Ki:
C[C@@H]1[C@H]2c3ccccc3C3(CC3)[C@@]12c1c[nH]cn1 (relative stereo): 7.94
Fc1ccc2c(c1)C1(CC1)C1(c3c[nH]cn3)CC21 (stereo not shown): 0.316
c1ccc2c(c1)C1CC1(c1cnc[nH]1)C21CC1 (stereo not shown) [Compound 1-1]: 0.316

Now examine the next entry.
Dear colleague, I am looking for the recorded Ki of the following compound: c1ccc2c(c1)C1CC1(c1cnc[nH]1)C21CC1 (single isomer, unassigned; (-)) [(-)-1-1]
2.51

Reference source: patent US8188126B2
